Where these numbers come from: PubChem BioAssay AID1645887

Experimental system: Rap guanine nucleotide exchange factor 4 (Homo sapiens)
Test method notes: Validation qHTS for agonist of cAMP-regulated guanine nucleotide exchange factor 4 (EPAC2)
Setup conditions: EPAC2 Rap1B BODIPY-GDP exchange, fluorescence; active compounds read high
The whole screen tested about 16,000 compounds, of which about 40 (0.2%) were called active. Not shown: some 1% with an inconclusive outcome. For the sample, actives were picked, then their nearest neighbours and some compounds at random.
Readout type: activation (%)
// units = %; emit number, no label

Worked cases, answers included:
Molecule: CCNc1ncc2nc(-c3cccs3)c(=O)n(CCc3ccccc3)c2n1
Units text: %
Number: -14
--
Molecule: O=C(O)CCC(=O)OC[C@@H](NC(=O)C(Cl)Cl)C(O)c1ccc([N+](=O)[O-])cc1 (stereo not given in full)
Units text: %
Number: -9.09
--
Molecule: O=C(O)COc1ccc(CCNS(=O)(=O)c2ccccc2)s1
Units text: %
Number: 2.15

Form field activation, entry [C-]#[N+]c1cc(-c2ccncc2)c(C)[nH]c1=O : -4.45

Form field activation, entry CCn1c(-c2ccccc2F)nc2cc(NC(C)=O)cc(C(=O)N3CCNC(=O)C3CC(=O)OC)c21 (stereo not given) : -2.82

----------
Experimental system: Rap guanine nucleotide exchange factor 4 (Homo sapiens) (UniProt Q8WZA2)
Sequence (Q8WZA2 whole entry, looked up): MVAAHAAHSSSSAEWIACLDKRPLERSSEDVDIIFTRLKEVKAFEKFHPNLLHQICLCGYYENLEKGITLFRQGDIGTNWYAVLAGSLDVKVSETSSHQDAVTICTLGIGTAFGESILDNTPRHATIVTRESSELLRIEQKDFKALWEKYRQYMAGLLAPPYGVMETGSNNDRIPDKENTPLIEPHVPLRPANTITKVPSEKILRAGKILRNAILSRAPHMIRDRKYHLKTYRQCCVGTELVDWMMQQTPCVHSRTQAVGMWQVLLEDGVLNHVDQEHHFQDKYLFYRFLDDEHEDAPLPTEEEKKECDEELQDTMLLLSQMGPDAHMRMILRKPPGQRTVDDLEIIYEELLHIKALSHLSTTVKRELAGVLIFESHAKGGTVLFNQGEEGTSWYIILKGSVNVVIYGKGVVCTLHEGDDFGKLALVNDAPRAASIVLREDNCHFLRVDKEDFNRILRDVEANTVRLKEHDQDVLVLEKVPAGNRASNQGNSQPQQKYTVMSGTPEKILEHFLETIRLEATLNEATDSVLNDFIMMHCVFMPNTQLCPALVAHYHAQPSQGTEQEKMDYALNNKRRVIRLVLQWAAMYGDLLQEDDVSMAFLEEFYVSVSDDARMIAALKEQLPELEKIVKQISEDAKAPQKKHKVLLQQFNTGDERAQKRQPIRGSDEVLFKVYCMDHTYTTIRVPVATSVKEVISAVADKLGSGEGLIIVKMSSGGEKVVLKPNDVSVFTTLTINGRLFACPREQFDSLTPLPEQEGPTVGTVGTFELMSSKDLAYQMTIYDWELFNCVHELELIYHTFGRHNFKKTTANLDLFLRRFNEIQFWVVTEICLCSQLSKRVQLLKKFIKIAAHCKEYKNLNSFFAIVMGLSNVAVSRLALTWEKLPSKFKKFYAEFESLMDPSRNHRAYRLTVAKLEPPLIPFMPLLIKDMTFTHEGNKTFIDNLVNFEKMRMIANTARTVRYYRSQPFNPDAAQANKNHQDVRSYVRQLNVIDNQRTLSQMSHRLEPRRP
Test method notes: Validation qHTS for agonist of cAMP-regulated guanine nucleotide exchange factor 4 (EPAC2)
Setup conditions: EPAC2 Rap1B BODIPY-GDP exchange, fluorescence; active compounds read high
About 40 (0.2%) of roughly 16,000 compounds were called active. Not shown: some 1% with an inconclusive outcome. Many of the other results were omitted from the sample, so actives are more common in it than they were.
Output Satisfied for activation not less than -10%; output Not satisfied otherwise.

Solved cases below.
Molecule: Cn1c2c(c(=O)c3ccccc31)C[C@@H](O)C(C)(C)O2
Qualitative label: Satisfied
//
Molecule: Cc1cnc(CNc2cc(-c3ccc(N(C)C)cc3)ncn2)cn1
Qualitative label: Not satisfied
//
Molecule: CN(C)c1ccc(/C=C/c2c3ccccc3nc3ccccc23)cc1
Qualitative label: Not satisfied
//
Molecule: NC(=S)c1ccc[n+]([C@@H]2O[C@@H](COP(=O)([O-])OP(=O)(O)OC[C@H]3O[C@@H](n4cnc5c(N)ncnc54)[C@H](OP(=O)(O)O)[C@@H]3O)C(O)C2O)c1 (some centres undefined)
Qualitative label: Not satisfied
//
Molecule: CN(C)C(=O)c1ccc(-c2cc(NCc3cccs3)ncn2)cc1
Qualitative label: Not satisfied

Problem: I'd appreciate it if you could say whether O=C(O)c1ccc2nc(-c3ccccc3)c(-c3ccccc3)nc2c1 has activation at least equal to -10%.
Solution: Satisfied

Problem: I'd appreciate it if you could say whether CC(C)C[C@@H](CSc1ccccc1)N1CCN(C)CCC1=O has activation at least equal to -10%.
Solution: Satisfied

Problem: I'd appreciate it if you could say whether COc1ccc2[nH]cc(CCNc3nc(-c4c(C)noc4C)nc4ccccc34)c2c1 has activation at least equal to -10%.
Solution: Satisfied

Problem: I'd appreciate it if you could say whether COc1ccccc1-c1ccnc(-n2ncc(C(=O)NCc3cccnc3)c2C)n1 has activation at least equal to -10%.
Solution: Satisfied

Problem: I'd appreciate it if you could say whether CC(C)(CNC(=O)c1cnn(-c2nccc(-c3ccccc3F)n2)c1C1CC1)N1CCOCC1 has activation at least equal to -10%.
Solution: Not satisfied

----------
Experimental system: Rap guanine nucleotide exchange factor 4 (Homo sapiens) (UniProt Q8WZA2)
Test method notes: Validation qHTS for agonist of cAMP-regulated guanine nucleotide exchange factor 4 (EPAC2)
Setup conditions: EPAC2 Rap1B BODIPY-GDP exchange, fluorescence; active compounds read high
From the text: Principle Investigator: Xiaodong Cheng Ph.D. The University of Texas Medical Branch, […], TX […] This qHTS will be used to screen the Molecular Libraries Small Molecule Repository (MLSMR) as a concentration-titration series using the NCGC unique quantitative screening (qHTS) platform to find activators for EPAC1. […] Activators are identified by monitoring the change in fluorescence signal as the exchanged free BODIPY-GDP has a reduced fluorescence compared to Rap1-bound BODIPY-GDP. […]
Out of some 16,000 compounds screened, about 40 (0.2%) were called active. About 1% were inconclusive and are not listed. The list comes from a sample in which actives are over-represented; it also holds close analogues and randomly drawn compounds.
Readout type: activation (%)
// units = %; emit number, no label

Worked cases, answers included:
Compound: Cc1cc(N(C)C)cc(C)c1/C=C/c1cc[n+](C)c2ccccc12
activation (%): -16.7
--
Compound: CCCN1CCC(=O)N([C@H](CSc2ccccc2)c2ccccc2)CC1
activation (%): -10.4
--
Compound: CN(C)Cc1ccccc1-c1cncnc1Nc1ccncc1
activation (%): 2.36

Okay, next one:
Form field activation, entry Cc1ccc(C(C)CCN2CCOc3ccc(CN4CCOCC4)cc3C2)o1 (centres undefined) : 1.95

----------
Recorded activation, one value per entry.
Experimental system: Rap guanine nucleotide exchange factor 4 (Homo sapiens)
Test method notes: Validation qHTS for agonist of cAMP-regulated guanine nucleotide exchange factor 4 (EPAC2);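 note: exchange makes BODIPY-GDP fluorescence drop when released from Rap1B; series mostly up to about 150 µM; % is set by controls: 0 for no effect and ±100 for the full control effect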
Setup conditions: EPAC2 Rap1B BODIPY-GDP exchange, fluorescence; active compounds read high
The whole screen tested about 16,000 compounds, of which about 40 (0.2%) were called active. Roughly 1% stayed inconclusive and do not appear here. The sample holds actives, similar compounds and a random draw of the others, so the mix is not that of the screen.
// units = %; emit number, no label

Worked cases, answers included:
Compound: COc1ccc2c(c1)-c1nc(-n3ncc(C(=O)NCC4CCCN(C)C4)c3C3CC3)ncc1CC2 (stereo not given)
Experimental system: Rap guanine nucleotide exchange factor 4 (Homo sapiens)
Readout type: activation
Number: 1.91

Compound: CNS(=O)(=O)Cc1ccc2[nH]cc(CCN(C)C)c2c1
Experimental system: Rap guanine nucleotide exchange factor 4 (Homo sapiens)
Readout type: activation
Number: -28

Okay, next one:
Form field activation, entry COCCn1c(=O)c(C)nc2cnc(OC)nc21 : -6.26

----------
Experimental system: Rap guanine nucleotide exchange factor 4 (Homo sapiens) (UniProt Q8WZA2)
Test method notes: Validation qHTS for agonist of cAMP-regulated guanine nucleotide exchange factor 4 (EPAC2);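 note: exchange makes BODIPY-GDP fluorescence drop when released from Rap1B; series mostly up to about 150 µM; % is set by controls: 0 for no effect and ±100 for the full control effect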
Setup conditions: EPAC2 Rap1B BODIPY-GDP exchange, fluorescence; active compounds read high
In all, about 16,000 compounds went through this assay and about 40 (0.2%) were called active. About 1% were inconclusive and are not listed. For the sample, actives were picked, then their nearest neighbours and some compounds at random.
Recorded activation, one value per entry.
// units = %; emit number, no label

Molecule: COc1cccc(CNC(=O)c2c(OC)cc(=O)n3c2CCN(C(=O)c2csc(C)n2)CC3)c1
Experimental system: Rap guanine nucleotide exchange factor 4 (Homo sapiens) (UniProt Q8WZA2)
Readout type: activation
Number: 1.41
//
Molecule: C=CCN1[C@@H](Cc2ccccc2)COCCS1(=O)=O
Experimental system: Rap guanine nucleotide exchange factor 4 (Homo sapiens) (UniProt Q8WZA2)
Readout type: activation
Number: -11.2
//
Molecule: Cc1nc(NCc2c(F)cccc2F)sc1-c1ccn(CCN2CCOCC2)n1
Experimental system: Rap guanine nucleotide exchange factor 4 (Homo sapiens) (UniProt Q8WZA2)
Readout type: activation
Number: -13.4

Okay, next one:
Form field activation, entry Cc1cc2c(c(-c3cnccn3)c1)OC(CNC(=O)c1ccc(-n3nc(C)cc3C)cc1)C2 (centres undefined) : -7.18

----------
Experimental system: Rap guanine nucleotide exchange factor 4 (Homo sapiens) (UniProt Q8WZA2)
Test method notes: Validation qHTS for agonist of cAMP-regulated guanine nucleotide exchange factor 4 (EPAC2);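 note: exchange makes BODIPY-GDP fluorescence drop when released from Rap1B; series mostly up to about 150 µM; % is set by controls: 0 for no effect and ±100 for the full control effect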
Setup conditions: EPAC2 Rap1B BODIPY-GDP exchange, fluorescence; active compounds read high
Screen size: about 16,000 compounds; about 40 (0.2%) were called active. Roughly 1% stayed inconclusive and do not appear here. Many of the other results were omitted from the sample, so actives are more common in it than they were.
Recorded activation, one value per entry.
// units = %; emit number, no label

Molecule: COc1cc2c(cc1OC)C(=O)N(C)CC2
Units text: %
activation: -9.91

Form field activation, entry CCOC(=O)c1c[nH]c2cc(OCC(C)C)c(OCC(C)C)cc2c1=O : -9.73

----------
Experimental system: Rap guanine nucleotide exchange factor 4 (Homo sapiens)
Test method notes: Validation qHTS for agonist of cAMP-regulated guanine nucleotide exchange factor 4 (EPAC2);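 note: exchange makes BODIPY-GDP fluorescence drop when released from Rap1B; series mostly up to about 150 µM; % is set by controls: 0 for no effect and ±100 for the full control effect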
Setup conditions: EPAC2 Rap1B BODIPY-GDP exchange, fluorescence; active compounds read high
Out of some 16,000 compounds screened, about 40 (0.2%) were called active. About 1% were inconclusive and are not listed. What follows is part of a selection rich in actives, with near analogues and random picks from the rest.
Readout type: activation

Form field activation, entry O=c1c(-c2ccc(Cl)cc2)nc2cnc(N3CCOCC3)nc2n1Cc1ccc(F)cc1 : -11.5% (inactive)

Form field activation, entry C[C@@H](N)CCCP(=O)(O)O : -1.34% (inactive)

Form field activation, entry CC[C@@]1(O)C(=O)OCc2c1cc1n(c2=O)Cc2cc3c([N+](=O)[O-])cccc3nc2-1 : 5.92% (inactive)

Form field activation, entry COC(=O)C1CCN(Cc2ccc3c(c2)CN(C(=O)c2ccc(-n4cnnn4)cc2)CCO3)CC1 : -3.06% (inactive)

Form field activation, entry CN(C)CCc1c[nH]c2ccc(CS(=O)(=O)N3CCCC3)cc12 : -8.07% (inactive)

Form field activation, entry CC1(S(=O)(=O)O)CC(=O)c2ccccc2C1=O (configuration not stated) : 3.25% (inactive)

Form field activation, entry COc1cc(CN2CCOc3ccc(C(O)c4cccnc4)cc3C2)cc(OC)c1 (configuration not stated) : -13.6% (inactive)

Form field activation, entry Nc1ccc2nc[nH]c2c1 : -7.36% (inactive)

Form field activation, entry Cc1cnc(SCCN2CCOCC2)nc1C1CCCN(C(=O)c2cccc3c(C)c(C)[nH]c23)C1 (configuration not stated) : -5.56% (inactive)

Form field activation, entry CN(Cc1ccco1)c1ncnc2ccc(-c3ccccc3C(F)(F)F)cc12 : -4.16% (inactive)

Form field activation, entry CCOC(=O)CCC(=O)O[C@H]1C(O[C@@H]2C(C)[C@H](O[C@H]3C[C@@](C)(OC)C(O)C(C)O3)C(C)C(=O)OC(CC)[C@@](C)(O)C(O)[C@H](C)C(=O)C(C)C[C@]2(C)O)OC(C)CC1N(C)C (some centres not stated) : -16.2% (inactive)

Form field activation, entry COc1ccccc1CCNc1ncnc2sc(C(=O)N3CCCC3)c(C)c12 : -2.93% (inactive)

Form field activation, entry O=c1[nH]c(=O)n(C2CC(O)C(CO)O2)cc1F (configuration not stated) : -6.18% (inactive)

Form field activation, entry O=C(NCc1nnc2n1CCN(C(=O)c1cccc(Cl)c1)CC2)C1CC1 : -2.97% (inactive)

Form field activation, entry CCn1c(C)nc2cc(NS(=O)(=O)c3ccccc3)cc(C(=O)N3C[C@@H](C)O[C@@H](C)C3)c21 : -0.794% (inactive)

Form field activation, entry Clc1ccc[n+](CCCCC[n+]2cccc(Cl)c2)c1 : -27.9% (inactive)

Form field activation, entry O=c1c(-c2ccc(F)c(F)c2)nc2cncnc2n1Cc1ccccc1 : -20.1% (inactive)
